Biological target: PI3Kδ (p110δ/p85α) Recombinant Human Protein (Homo sapiens (Human), UniProt O00329)
Sequence (O00329 whole entry): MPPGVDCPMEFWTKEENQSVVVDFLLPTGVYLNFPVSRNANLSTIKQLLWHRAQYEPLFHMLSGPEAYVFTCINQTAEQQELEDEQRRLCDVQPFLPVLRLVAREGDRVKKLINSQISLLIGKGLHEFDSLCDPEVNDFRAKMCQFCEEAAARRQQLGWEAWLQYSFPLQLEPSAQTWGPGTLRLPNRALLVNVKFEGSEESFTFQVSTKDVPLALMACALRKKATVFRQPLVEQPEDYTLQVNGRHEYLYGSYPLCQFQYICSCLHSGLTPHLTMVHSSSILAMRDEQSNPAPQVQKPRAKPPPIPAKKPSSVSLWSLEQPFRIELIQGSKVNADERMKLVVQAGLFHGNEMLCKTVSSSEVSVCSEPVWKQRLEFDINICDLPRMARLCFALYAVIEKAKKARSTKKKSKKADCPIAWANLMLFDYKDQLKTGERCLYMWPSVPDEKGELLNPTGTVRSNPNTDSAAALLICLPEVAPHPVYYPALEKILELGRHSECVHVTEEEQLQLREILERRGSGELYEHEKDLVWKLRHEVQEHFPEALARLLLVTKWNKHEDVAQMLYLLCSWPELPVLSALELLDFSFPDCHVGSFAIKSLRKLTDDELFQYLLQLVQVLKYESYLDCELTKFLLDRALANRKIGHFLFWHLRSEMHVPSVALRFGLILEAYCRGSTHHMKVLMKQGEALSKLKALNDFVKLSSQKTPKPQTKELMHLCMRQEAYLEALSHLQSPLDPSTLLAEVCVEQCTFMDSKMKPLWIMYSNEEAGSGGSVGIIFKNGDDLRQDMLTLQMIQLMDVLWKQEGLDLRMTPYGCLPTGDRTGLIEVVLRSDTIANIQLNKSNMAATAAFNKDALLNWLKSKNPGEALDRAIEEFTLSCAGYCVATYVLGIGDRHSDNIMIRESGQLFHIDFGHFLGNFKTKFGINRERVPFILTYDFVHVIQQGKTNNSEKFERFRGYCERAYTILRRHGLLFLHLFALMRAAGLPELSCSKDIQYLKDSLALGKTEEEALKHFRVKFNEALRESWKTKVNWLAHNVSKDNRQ
Sequence (P27986 whole entry partner): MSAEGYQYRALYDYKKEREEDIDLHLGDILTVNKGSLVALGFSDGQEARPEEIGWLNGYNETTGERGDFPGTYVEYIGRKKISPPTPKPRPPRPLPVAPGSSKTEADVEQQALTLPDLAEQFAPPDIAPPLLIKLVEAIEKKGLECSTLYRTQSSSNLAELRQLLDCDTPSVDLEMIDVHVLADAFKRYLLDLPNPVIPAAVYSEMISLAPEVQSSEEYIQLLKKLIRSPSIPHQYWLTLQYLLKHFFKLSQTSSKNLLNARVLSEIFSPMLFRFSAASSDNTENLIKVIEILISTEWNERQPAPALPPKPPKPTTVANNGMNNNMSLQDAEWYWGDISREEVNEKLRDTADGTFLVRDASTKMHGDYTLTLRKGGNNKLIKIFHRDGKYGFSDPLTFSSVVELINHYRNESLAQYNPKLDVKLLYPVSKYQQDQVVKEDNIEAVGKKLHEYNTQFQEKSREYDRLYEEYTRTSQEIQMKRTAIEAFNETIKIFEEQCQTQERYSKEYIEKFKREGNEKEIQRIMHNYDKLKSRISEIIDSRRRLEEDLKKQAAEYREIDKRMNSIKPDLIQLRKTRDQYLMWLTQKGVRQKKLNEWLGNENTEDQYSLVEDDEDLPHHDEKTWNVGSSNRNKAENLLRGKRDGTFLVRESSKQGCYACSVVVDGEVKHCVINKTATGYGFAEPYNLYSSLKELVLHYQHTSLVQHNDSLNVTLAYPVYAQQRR
Test: PI3Kδ Scintillation Proximity Assay
Where a name gives a salt, the structure may show the parent alone.
Each record here notes measured IC50.

Prompt line: Which IC50 is listed for Cc1ccc(S(=O)(=O)NC23CC(CF)(C2)C3)cc1-c1cnc2c(N)nc(C(F)(F)F)cn12 [Example 286, trifluoroacetate salt] ?
Response line: 100 to 500 nM

Prompt line: Can you look up the measured IC50 of Cc1ccc(S(=O)(=O)NC23CC(N)(C2)C3)cc1-c1cnc2c(N)nc(C(F)(F)F)nn12 [Example 341, trifluoroacetate salt] for me?
Response line: 100 to 500 nM

Prompt line: Consider the compound shown here: N#CC12CCC(NS(=O)(=O)c3cccc(-c4cnc5c(N)nc(C(F)(F)F)cn45)c3)(C1)C2 [Example 395, trifluoroacetate salt] What is its recorded IC50?
Response line: 100 to 500 nM

###

Measured pIC50 accompanies every entry in the list below.
Molecular target: PI3Kδ (p110δ/p85α) Recombinant Human Protein (Homo sapiens (Human))
Assay: PI3Kδ Scintillation Proximity Assay
pIC50: −log10 of the molar value. Where a name gives a salt, the structure may show the parent alone.

Prompt line: Please report the recorded pIC50 for Cc1ccc(S(=O)(=O)NC23CC(C#N)(C2)C3)cc1-c1cnc2c(N)nc(C(F)(F)F)cn12 .
Response line: 6.30 to 7.00

Prompt line: Entry under review: Cc1ccc(S(C)(=O)=O)cc1-c1cnc2c(N)nc(C(=O)NCCc3cnn(C)c3)cn12 [Example 453, trifluoroacetate salt] . Reported pIC50?
Response line: 6.30 to 7.00

###

The entries below come with measured pIC50 values attached.
Target: PI3Kδ (p110δ/p85α) Recombinant Human Protein (Homo sapiens (Human))
Assay: PI3Kδ Scintillation Proximity Assay
Type: biochemical
pIC50: −log10 of the molar value. Structures can show the parent of a compound that is named as a salt.

Reference set, count: 3
compound=Cc1ccc(-c2cnc3c(N)nccn23)cc1S(=O)(=O)N[C@H]1CC[C@H](O)CC1 measurementlabel=pIC50 result="6.30 to 7.00"
compound="Cc1ccc(S(=O)(=O)N2CCCC2c2c(C)noc2C)cc1-c1cnc2c(N)ncnn12 (stereo not shown)" measurementlabel=pIC50 result="5.70 to 6.30"
compound=Cc1cn2c(-c3cccc(S(=O)(=O)NC45CCC(CO)(C4)C5)c3)cnc2c(N)n1 measurementlabel=pIC50 result="6.30 to 7.00"

We next turn to a different compound, shown below.
Prompt line: For the compound shown here, Cc1ccc(S(=O)(=O)NC23CC(F)(C2)C3)cc1-c1cnc2c(N)nc(C(F)(F)F)cn12 [Example 285, trifluoroacetate salt] , give the reported pIC50.
Response line: 6.30 to 7.00

###

Biological target: PI3Kδ (p110δ/p85α) Recombinant Human Protein (Homo sapiens (Human))
Assay: PI3Kδ Scintillation Proximity Assay
pIC50: −log10 of the molar value.
In this section, each of the compounds is paired with its reported pIC50.

Examples with answers:
compound=O=S(=O)(O)c1ccccc1.[2H]C([2H])([2H])c1ccc(S(=O)(=O)NC23CCC(C#N)(C2)C3)cc1-c1cnc2c(N)ncnn12 measurementlabel=pIC50 result="6.30 to 7.00"
compound="Cc1ccc(S(=O)(=O)CCC(C)O)cc1-c1cnc2c(N)nc(C(F)(F)F)cn12 (stereo not shown)" measurementlabel=pIC50 result="5.70 to 6.30"
compound=Cc1ccc(S(=O)(=O)NC23CCC(F)(CC2)CC3)cc1-c1cnc2c(N)ncnn12 measurementlabel=pIC50 result="> 7.00"

// switching to the query compound
Prompt line: Report pIC50 for [2H]C([2H])([2H])c1ccc(S(=O)(=O)NC23CCC(O)(C2)C3)cc1-c1cnc2c(N)ncnn12 please.
Response line: 5.70 to 6.30

###

Tested on: Phosphorylated Ribosomal Protein S6 (RPS6)
Test: THP-1 RPS6 ELISA Assay
Type: cell-based, Human
Details: THP-1 cells; read-out: PI3Kγ_THP1_RPS6_ELISA IC50
Where a name gives a salt, the structure may show the parent alone.
IC50 by entry:

Sample records with IC50:
compound="Cc1ccc(S(=O)(=O)N[C@H]2C[C@H](CO)C2)cc1-c1cnc2c(N)nc(C(F)(F)F)nn12 [Example 323, trifluoroacetate salt]" result="< 100 nM"
compound="Cc1ccc(S(=O)(=O)NC23CCC(C#N)(CC2)C3)cc1-c1cnc2c(N)ncnn12 [Example 90, trifluoroacetate salt]" result="< 100 nM"
compound="Cc1ccc(S(=O)(=O)NC23CCC(C(N)=O)(C2)C3)cc1-c1cnc2c(N)ncnn12 [Example 110, trifluoroacetate salt]" result="> 1000 nM"
compound="Cc1ccc(S(=O)(=O)NC2CCC(F)(F)CC2)cc1-c1cnc2c(N)nccn12 [Example 84]" result="> 1000 nM"

Prompt line: Which IC50 value is on record for Cc1cc(C)c(S(=O)(=O)N[C@H]2CC[C@](C)(O)CC2)cc1-c1cnc2c(N)nc(C(F)(F)F)nn12 [Example 413, trifluoroacetate salt] ?
Response line: < 100 nM

###

Target: PI3Kδ (p110δ/p85α) Recombinant Human Protein (Homo sapiens (Human))
Assay: PI3Kδ Scintillation Proximity Assay
pIC50: −log10 of the molar value. Counter-ions that a name gives are not always drawn.
measurementLabel: pIC50

Prompt line: For the compound shown here, Cc1cc(C)c(S(=O)(=O)NC23CCC(CO)(C2)C3)cc1-c1cnc2c(N)ncnn12 [Example 363] , give the reported pIC50.
Response line: 5.70 to 6.30

Prompt line: Dear colleague, I am looking for the recorded pIC50 of the following compound: Cc1ccc(S(=O)(=O)N2CC3C(O)C2CN3C)cc1-c1cnc2c(N)nc(C(F)(F)F)nn12 (stereo not shown) [Example 352]
Response line: 5.70 to 6.30

Prompt line: Requested field: pIC50. Item: Cc1ccc(S(=O)(=O)N[C@H]2CC[C@](C)(O)CC2)cc1-c1cnc2c(N)ccnn12 [Example 518]
Response line: 5.70 to 6.30

Prompt line: Need pIC50, item Cc1ccc(S(=O)(=O)NC23CCC(CC#N)(C2)C3)cc1-c1cnc2c(N)ncnn12 [Example 108, trifluoroacetate salt]
Response line: 6.30 to 7.00

###

Below, each of the compounds is paired with its reported pIC50 value.
Tested on: Phosphorylated Ribosomal Protein S6 (RPS6)
Assay: THP-1 RPS6 ELISA Assay
Format: cell-based, Human
Conditions: THP-1 cells; read-out: PI3Kγ_THP1_RPS6_ELISA IC50
Procedure: To measure the Phosphorylated Ribosomal Protein S6 (RPS6) in cell lysates, THP-1 cells (Human Acute Monocytic Leukemia) are purchased from ATCC (Manassas, Va.) and maintained in RPMI with 10% FBS (Gibco/Life Technologies, Carlsbad, Calif.). […] The plate is measured using a microplate reader (SpectraMax M5 —Molecular Devices, LLC Sunnyvale, Calif.) set to 450 nm with a wavelength correction of 540. […]
pIC50: −log10 of the molar value. Structures can show the parent of a compound that is named as a salt.

In the examples that follow, each entry is paired with its recorded pIC50.
compound=C[C@]1(O)CC[C@H](NS(=O)(=O)c2cc(-c3cnc4c(N)nccn34)ccc2F)CC1 result="< 6.00"
compound=Cc1cn2c(-c3ccc(Cl)c(S(=O)(=O)N[C@H]4CC[C@](C)(O)CC4)c3)cnc2c(N)n1 result="6.30 to 7.00"
compound="Cc1ccc(S(=O)(=O)NC23CC(F)(C2)C3)cc1-c1cnc2c(N)nc(C(F)(F)F)nn12 [Example 333, trifluoroacetate salt]" result="> 7.00"
compound="Cc1ccc(S(=O)(=O)N[C@H]2C[C@](C)(C#N)C2)cc1-c1cnc2c(N)ncnn12 [Example 87, trifluoroacetate salt]" result="6.30 to 7.00"
compound="Cc1nc(N)c2ncc(-c3cc(S(=O)(=O)N[C@H]4CC[C@](C)(O)CC4)c(F)cc3C)n2n1 [Example 402, trifluoroacetate salt]" result="6.30 to 7.00"

Prompt line: Give the reported pIC50 for Cc1ccc(S(=O)(=O)NC23CCC(CC#N)(C2)C3)cc1-c1cnc2c(N)ncnn12 [Example 108, trifluoroacetate salt] (system: Phosphorylated Ribosomal Protein S6 (RPS6)).
Response line: 6.30 to 7.00

Prompt line: Test system Phosphorylated Ribosomal Protein S6 (RPS6); read-out pIC50; what value for Cc1ccc(S(=O)(=O)NC23CC(Cn4ccnc4)(C2)C3)cc1-c1cnc2c(N)nc(C(F)(F)F)nn12 [Example 324, trifluoroacetate salt] ?
Response line: > 7.00

Prompt line: Checklist item: pIC50 tested on Phosphorylated Ribosomal Protein S6 (RPS6), entry CC(=O)N1CC(O)(CNS(=O)(=O)c2ccc(C)c(-c3cnc4c(N)nc(C(F)(F)F)nn34)c2)C1 [Example 325, trifluoroacetate salt] , value?
Response line: 6.30 to 7.00

Prompt line: Request - read-out pIC50 | tested on Phosphorylated Ribosomal Protein S6 (RPS6) | compound CC(=O)C12CC(NS(=O)(=O)c3ccc(C)c(-c4cnc5c(N)ncnn45)c3)(C1)C2 [Example 95, trifluoroacetate salt]
Response line: 6.30 to 7.00

Prompt line: Field: pIC50 (Phosphorylated Ribosomal Protein S6 (RPS6)). Entry: Cc1ccc(S(=O)(=O)N[C@]2(C)CC[C@@H](O)CC2)cc1-c1cnc2c(N)ncnn12
Response line: 6.30 to 7.00
